- Tested on: Mus musculus
- Procedure details: Immunomodulatory activity in C57BL/6 mouse assessed as lymphopenia at 10 mg/kg, po after 6 hrs by complete blood count analysis
- Assay type: functional
Calls of active or inactive are those of the source. No cut-off for these calls is given here.
Result type: Activity

Worked examples follow.
CCCCOc1ccc(Oc2ccc(NC(=O)[C@@](C)(N)CO)cc2)cc1 inactive
C[C@](N)(CO)C(=O)Nc1ccc(OCCc2ccc(Cl)cc2)cc1 inactive
CCOc1cccc(-c2ccc(NC(=O)[C@@](C)(N)CO)cc2)c1 15%
C[C@](N)(CO)C(=O)Nc1ccc(OCCc2cccc(C(F)(F)F)c2)cc1 inactive
C[C@](N)(CO)C(=O)Nc1ccc(OCCc2ccc(-c3ccoc3)cc2)cc1 68%

// query Consider the molecule shown here: `C[C@](N)(CO)C(=O)Nc1ccc(Oc2cccc(OCc3ccccc3)c2)cc1` What is its recorded Activity?
// result 10%

###

- Species on record: Homo sapiens
- Procedure details: Ratio of EC50 for human S1P3 receptor to EC50 for human S1P1 receptor
Result type: Ratio EC50
The answer should be written as a number, with no unit following it.

Worked examples follow.
C[C@](N)(COP(=O)(O)O)C(=O)Nc1ccc(OCCCCc2ccc(-c3ccccc3)cc2)cc1 1.1
C[C@](N)(COP(=O)(O)O)c1nc(-c2ccc(OCCCCc3ccccc3)cc2)c[nH]1 16
C[C@](N)(COP(=O)(O)O)C(=O)Nc1ccc(OCCCc2ccc(-c3ccccc3)cc2)cc1 21.8
C[C@](N)(COP(=O)(O)O)C(=O)Nc1ccc(OCc2ccc(-c3ccccc3)cc2)cc1 0.8

// query Consider the compound shown here: `C[C@](N)(COP(=O)(O)O)C(=O)Nc1ccc(OCCCCCc2ccccc2)cc1` What is its recorded Ratio EC50?
// result 1.3

// query Consider the compound shown here: `C[C@](N)(COP(=O)(O)O)c1nc(-c2ccc(OCc3ccc(-c4ccccc4)cc3)cc2)c[nH]1` What is its recorded Ratio EC50?
// result 24.9

// query Consider the compound shown here: `C[C@](N)(COP(=O)(O)O)C(=O)Nc1ccc(OCCc2ccc(-c3ccccc3)cc2)cc1` What is its recorded Ratio EC50?
// result 231

###

- Assay target: Sphingosine 1-phosphate receptor 4 (Homo sapiens, UniProt O95977)
- Sequence (O95977 whole entry): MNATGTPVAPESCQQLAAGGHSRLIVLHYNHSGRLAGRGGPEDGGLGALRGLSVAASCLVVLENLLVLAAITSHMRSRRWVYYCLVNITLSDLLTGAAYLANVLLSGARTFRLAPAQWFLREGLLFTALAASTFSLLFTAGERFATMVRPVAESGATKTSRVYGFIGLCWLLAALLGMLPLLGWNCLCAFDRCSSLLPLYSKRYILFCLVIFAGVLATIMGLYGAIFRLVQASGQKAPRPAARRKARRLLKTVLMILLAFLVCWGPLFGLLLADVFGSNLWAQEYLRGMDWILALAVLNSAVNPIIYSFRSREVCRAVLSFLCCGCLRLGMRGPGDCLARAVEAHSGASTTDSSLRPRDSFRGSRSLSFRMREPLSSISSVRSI
Recorded IC50 by entry
A number alone suffices; assume nM.

// query Consider the molecule shown here: `C[C@](N)(COP(=O)(O)O)c1nc(-c2ccc(OCCCCCc3ccccc3)cc2)c[nH]1` What is its recorded IC50?
// result 1.23

// query Consider the molecule shown here: `C[C@](N)(COP(=O)(O)O)C(=O)Nc1ccc(OCCc2ccc(-c3ccccc3)cc2)cc1` What is its recorded IC50?
// result 4.17

###

Measured pIC50 (Sphingosine 1-phosphate receptor 5 (Homo sapiens))
Please express pIC50 as -log10 of the molar concentration.

Worked examples follow.
C[C@](N)(COP(=O)(O)O)C(=O)Nc1ccc(OCCCCc2ccc(-c3ccccc3)cc2)cc1 7.00
C[C@](N)(COP(=O)(O)O)C(=O)Nc1ccc(Oc2ccc(-c3ccccc3)cc2)cc1 6.34
C[C@](N)(COP(=O)(O)O)C(=O)Nc1ccc(OCCCCc2ccccc2)cc1 7.36
C[C@](N)(COP(=O)(O)O)c1nc(-c2ccc(OCCc3ccc(-c4ccccc4)cc3)cc2)c[nH]1 6.68
C[C@](N)(COP(=O)(O)O)C(=O)Nc1ccc(OCCCCC2CCCCC2)cc1 7.58
C[C@](N)(COP(=O)(O)O)C(=O)Nc1ccc(OCCc2ccc(-c3ccccc3)cc2)cc1 6.91

// query API: value(readout=pIC50, system=Sphingosine 1-phosphate receptor 5 (Homo sapiens)) for record `C[C@](N)(COP(=O)(O)O)C(=O)Nc1ccc(OCCCCCc2ccccc2)cc1`
// result 8.54

###

- System: Mus musculus
- Procedure details: Immunomodulatory activity in C57BL/6 mouse assessed as lymphopenia at 10 mg/kg, po after 6 hrs by complete blood count analysis
- Type: functional
Calls of active or inactive are those of the source. The calls are words filed in the database; no cut-off is given here.
Result type: Activity

C[C@](N)(CO)C(=O)Nc1ccc(OCCc2ccc(-c3ccccc3C#N)cc2)cc1 78%
C[C@](N)(CO)C(=O)Nc1ccc(OCCc2ccc(C(F)(F)F)cc2)cc1 inactive
C[C@](N)(CO)C(=O)Nc1ccc(OCCc2ccc(-c3cccc(C(F)(F)F)c3)cc2)cc1 51%
C[C@](N)(CO)C(=O)Nc1ccc(OCCc2ccc(-c3ccccc3)cc2)cc1 81%
C[C@](N)(CO)C(=O)Nc1ccc(OCCCCC2CCCCC2)cc1 74%
C[C@](N)(CO)C(=O)Nc1ccc(Oc2ccc(Cl)cc2)cc1 inactive
C[C@](N)(COP(=O)(O)O)C(=O)Nc1ccc(OCc2ccc(-c3ccccc3)cc2)cc1 28%
C[C@](N)(CO)C(=O)Nc1ccc(OCCc2ccc(-c3ccccc3Cl)cc2)cc1 75%
C[C@](N)(CO)C(=O)Nc1ccc(OCCc2ccc(-c3cccs3)cc2)cc1 78%
CC(C)c1cccc(-c2ccc(NC(=O)[C@@](C)(N)CO)cc2)c1 22%

// query Consider the molecule shown here: `C[C@](N)(CO)C(=O)Nc1ccc(OCCCCc2cccs2)cc1` What is its recorded Activity?
// result 66%

// query Consider the molecule shown here: `CCc1ccc(Oc2ccc(NC(=O)[C@@](C)(N)CO)cc2)cc1` What is its recorded Activity?
// result inactive

// query Consider the molecule shown here: `CCCCc1ccc(Oc2ccc(NC(=O)[C@@](C)(N)CO)cc2)cc1` What is its recorded Activity?
// result 10%

###

- System: Mus musculus
- Procedure details: Immunomodulatory activity in C57BL/6 mouse assessed as lymphopenia at 10 mg/kg, po after 6 hrs by complete blood count analysis
- Assay type: functional
The source made the active and inactive calls. The rule behind the calls is not given here.
Result type: Activity

C[C@](N)(CO)C(=O)Nc1ccc(Oc2cccc(C(F)(F)F)c2)cc1 inactive
CC(C)c1ccc(-c2ccc(CCOc3ccc(NC(=O)[C@@](C)(N)CO)cc3)cc2)cc1 inactive
Cc1ccccc1-c1ccc(CCOc2ccc(NC(=O)[C@@](C)(N)CO)cc2)cc1 79%
C[C@](N)(CO)C(=O)Nc1ccc(Oc2ccccc2)cc1 inactive
C[C@](N)(CO)C(=O)Nc1ccc(Oc2ccc(-c3ccccc3)cc2)cc1 81%
CC(C)c1cccc(Oc2ccc(NC(=O)[C@@](C)(N)CO)cc2)c1 inactive
C[C@](N)(CO)C(=O)Nc1ccc(-c2ccc3c(c2)OCO3)cc1 40%
C[C@](N)(CO)C(=O)Nc1ccc(OCCc2cccc3ccccc23)cc1 inactive

// query API: value(readout=Activity, system=Mus musculus) for record `C[C@](N)(COP(=O)(O)O)c1nc(-c2ccc(OCc3ccc(-c4ccccc4)cc3)cc2)c[nH]1`
// result 84%

// query API: value(readout=Activity, system=Mus musculus) for record `C[C@](N)(COP(=O)(O)O)C(=O)Nc1ccc(OCCc2ccc(-c3ccccc3)cc2)cc1`
// result 81%

###

- Species on record: Homo sapiens
- Procedure details: Ratio of IC50 for human S1P3 receptor to IC50 for human S1P1 receptor
Mark NO for Ratio IC50 values under 20, and YES for everything at or above.

Example cases with answers are listed next.
C[C@](N)(COP(=O)(O)O)C(=O)Nc1ccc(OCCCCC2CCCCC2)cc1 YES
C[C@](N)(COP(=O)(O)O)C(=O)Nc1ccc(OCCc2ccc(-c3ccccc3Cl)cc2)cc1 YES
C[C@](N)(COP(=O)(O)O)C(=O)Nc1ccc(OCCc2ccc(-c3cccs3)cc2)cc1 YES
C[C@](N)(COP(=O)(O)O)C(=O)Nc1ccc(OCCCCc2ccccc2)cc1 YES
C[C@](N)(COP(=O)(O)O)c1nc(-c2ccc(OCCc3ccc(-c4ccccc4)cc3)cc2)c[nH]1 YES

Turning to the following molecule.
// query Decide: is the reported value of Ratio IC50 for `COc1ccc(CCCCOc2ccc(NC(=O)[C@@](C)(N)COP(=O)(O)O)cc2)cc1` equal to or greater than 20?
// result YES

###

- Assay target: Sphingosine 1-phosphate receptor 3 (Homo sapiens)
- Sequence (Q99500 whole entry): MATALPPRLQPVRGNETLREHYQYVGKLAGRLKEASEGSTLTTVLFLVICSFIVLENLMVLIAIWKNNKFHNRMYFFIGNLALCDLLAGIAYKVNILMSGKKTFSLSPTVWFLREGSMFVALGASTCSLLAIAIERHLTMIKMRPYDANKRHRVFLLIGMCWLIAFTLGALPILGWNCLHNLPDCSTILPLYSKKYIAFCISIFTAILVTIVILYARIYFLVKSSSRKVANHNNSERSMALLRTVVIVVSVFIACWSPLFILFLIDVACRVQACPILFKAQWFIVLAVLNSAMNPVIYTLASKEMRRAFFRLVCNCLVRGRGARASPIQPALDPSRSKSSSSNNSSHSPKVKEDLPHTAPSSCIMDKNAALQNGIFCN
- Procedure details: Agonist activity at human S1P3 receptor assessed as stimulation of [35S]GTPgammaS binding
pEC50: −log10 of the molar value.
Mark no for pEC50 values under 7, and yes for everything at or above.

Example cases with answers are listed next.
C[C@](N)(COP(=O)(O)O)C(=O)Nc1ccc(OCCCCC2CCCCC2)cc1 yes
C[C@](N)(COP(=O)(O)O)C(=O)Nc1ccc(OCCCCc2ccc(-c3ccccc3)cc2)cc1 yes
C[C@](N)(COP(=O)(O)O)C(=O)Nc1ccc(OCCCCCc2ccccc2)cc1 yes

Turning to the following compound.
// query Decide: is the reported value of pEC50 for `C[C@](N)(COP(=O)(O)O)c1nc(-c2ccc(OCc3ccc(-c4ccccc4)cc3)cc2)c[nH]1` equal to or greater than 7?
// result yes

Attribution: ChEMBL document CHEMBL1138585
